Parameter activity, negative = inhibition: see the listing below.
# experimentalDetails: Stat Signaling Pathway (AID 446);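 further: ME-180 cervical cancer cells given 40 pM IL-6 alongside compound; SIE-controlled beta-lactamase reporter measured as 460/530 nm FRET emission ratio; on the % scale 0 is the no-effect control and ±100 the full control effect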
# testContext: ME-180 (cervical carcinoma) SIE beta-lactamase reporter, IL-6 stimulated, 5 h; at 7.69 µM (top of the series) unless noted
Inconclusive results are not listed. Calls of active or inactive are those of the source. The call rests on the fitted dose curve; in most records, active means well fitted curve in either direction with a large enough effect (not every such curve was filed as active); inconclusive means small, poorly fitted or top-dose-only effect, or another doubt; inactive means flat fitted curve, though single readings scatter.
reportedProperty: activity, negative = inhibition

| givenSmiles | endpointResult |
| --- | --- |
| CC(=O)[C@@H]1CC[C@H]2[C@H]3CC[C@H]4C[C@@H](O)CC[C@]4(C)[C@@H]3CC[C@]12C | -25.9% [at 38 µM] (inactive) |
| FC(F)(F)c1nc2ccc(SSc3ccc4nc(C(F)(F)F)[nH]c4c3)cc2[nH]1 | -6.22% (inactive) |
| [N-]=[N+]=NCC(=O)c1c[nH]c(=O)[nH]c1=O | 1.86% (inactive) |
